- Test system: ATP;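 further: ATP exposure 15 min at 22 °C before imaging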
- protocol.description: switch fluorescence ratio, 500 uM ATP over buffer (Cy3 cluster intensity, sum of 5 cycles each) (fold (ratio)); higher = stronger signal-on switching upon ATP binding; sequences stand for … in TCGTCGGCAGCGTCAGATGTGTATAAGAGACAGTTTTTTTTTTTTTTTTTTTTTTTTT…TC
- study.conditions: aptamer strand: ATP DNA aptamer (quencher-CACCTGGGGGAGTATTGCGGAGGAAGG + anchor), 100 nM annealed; ATP concentration: 500 uM
Label scheme for switch fluorescence ratio: lower than 1 is FALSE, 1 and above is TRUE.

Ask: State whether the measured switch fluorescence ratio reaches 1, counting equality as reaching it, for CTCCGAATTT
Result: TRUE

Ask: State whether the measured switch fluorescence ratio reaches 1, counting equality as reaching it, for GGAGTAGCTA
Result: TRUE

Ask: State whether the measured switch fluorescence ratio reaches 1, counting equality as reaching it, for CGGTTATTTA
Result: TRUE

Ask: State whether the measured switch fluorescence ratio reaches 1, counting equality as reaching it, for TTGTTA
Result: FALSE

Ask: State whether the measured switch fluorescence ratio reaches 1, counting equality as reaching it, for AGAGCTGGGA
Result: FALSE

Ask: State whether the measured switch fluorescence ratio reaches 1, counting equality as reaching it, for GCGGGACTGG
Result: TRUE

###

- System: ATP;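 further: ATP exposure 15 min at 22 °C before imaging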
- protocol.description: switch fluorescence ratio, 500 uM ATP over buffer (Cy3 cluster intensity, sum of 5 cycles each) (fold (ratio)); higher = stronger signal-on switching upon ATP binding; sequences stand for … in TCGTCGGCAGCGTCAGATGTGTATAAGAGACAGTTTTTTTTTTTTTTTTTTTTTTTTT…TC
- study.conditions: aptamer strand: ATP DNA aptamer (quencher-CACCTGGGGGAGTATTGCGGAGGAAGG + anchor), 100 nM annealed; ATP concentration: 500 uM
observed.property: switch fluorescence ratio
Output: the number by itself.

Ask: What value of measured switch fluorescence ratio is listed for ACTTTGCCAC ?
Result: 1.18

Ask: What value of measured switch fluorescence ratio is listed for GGTCATAATT ?
Result: 0.986

Ask: What value of measured switch fluorescence ratio is listed for GATCTGCTTC ?
Result: 1.02

Ask: What value of measured switch fluorescence ratio is listed for AGTAATGTAG ?
Result: 1

Ask: What value of measured switch fluorescence ratio is listed for CAGTTGGGGG ?
Result: 1

Ask: What value of measured switch fluorescence ratio is listed for GTTTTCGGTT ?
Result: 1.01

Ask: What value of measured switch fluorescence ratio is listed for AAAATTGTTG ?
Result: 0.988

Ask: What value of measured switch fluorescence ratio is listed for AGTATATGTG ?
Result: 0.955

Ask: What value of measured switch fluorescence ratio is listed for ATTGGAGTAT ?
Result: 0.978

Ask: What value of measured switch fluorescence ratio is listed for AAGTTGGGGA ?
Result: 0.996

Ask: What value of measured switch fluorescence ratio is listed for ATTAGCACGT ?
Result: 1.02

Ask: What value of measured switch fluorescence ratio is listed for TTACCGGGCT ?
Result: 1.05

Ask: What value of measured switch fluorescence ratio is listed for AATTAAGATA ?
Result: 0.991

Ask: What value of measured switch fluorescence ratio is listed for TGGTGAGGGG ?
Result: 1.12

Ask: What value of measured switch fluorescence ratio is listed for GTTGGGTATT ?
Result: 1.01

Ask: What value of measured switch fluorescence ratio is listed for GCCGTATGG ?
Result: 0.997

Ask: What value of measured switch fluorescence ratio is listed for AGGTCTGGCA ?
Result: 0.995

Ask: What value of measured switch fluorescence ratio is listed for GGGTGGGGTC ?
Result: 1

Ask: What value of measured switch fluorescence ratio is listed for ACAGTATGGT ?
Result: 1.02

Ask: What value of measured switch fluorescence ratio is listed for GGTGGACCGA ?
Result: 0.984

Ask: What value of measured switch fluorescence ratio is listed for TGGGTATTAG ?
Result: 0.992

Ask: What value of measured switch fluorescence ratio is listed for GTGGGGAGAG ?
Result: 0.96

Ask: What value of measured switch fluorescence ratio is listed for CTAGCTGCGA ?
Result: 1.08

Ask: What value of measured switch fluorescence ratio is listed for ACGTATTACA ?
Result: 1.83

Ask: What value of measured switch fluorescence ratio is listed for ATAAGGTTGG ?
Result: 0.988

Ask: What value of measured switch fluorescence ratio is listed for TTGGATACCT ?
Result: 1.05

Ask: What value of measured switch fluorescence ratio is listed for GGTTGTTTGT ?
Result: 0.995

Ask: What value of measured switch fluorescence ratio is listed for CTACTTTTTT ?
Result: 1.01

Ask: What value of measured switch fluorescence ratio is listed for TAGCAGTATT ?
Result: 1.07

Ask: What value of measured switch fluorescence ratio is listed for TTTTGATCTA ?
Result: 0.97

Ask: What value of measured switch fluorescence ratio is listed for TGTCCGCCTG ?
Result: 1.07

Ask: What value of measured switch fluorescence ratio is listed for CCAGGGGGGG ?
Result: 1.24

Ask: What value of measured switch fluorescence ratio is listed for TTTTAGGTGC ?
Result: 1.09

Ask: What value of measured switch fluorescence ratio is listed for TGGGTCTGAT ?
Result: 0.987

Ask: What value of measured switch fluorescence ratio is listed for TTCGCTACGT ?
Result: 1.02

Ask: What value of measured switch fluorescence ratio is listed for TAAACACCTG ?
Result: 1.02

Ask: What value of measured switch fluorescence ratio is listed for AGTGTGTTAG ?
Result: 0.987

Ask: What value of measured switch fluorescence ratio is listed for GTGTTAGGCT ?
Result: 0.978

Ask: What value of measured switch fluorescence ratio is listed for CAATATATAC ?
Result: 1.13

Ask: What value of measured switch fluorescence ratio is listed for AGTGCGGCCG ?
Result: 0.985

Ask: What value of measured switch fluorescence ratio is listed for TCGGAGTTAG ?
Result: 1.04

Ask: What value of measured switch fluorescence ratio is listed for TGATTCTCTT ?
Result: 1

Ask: What value of measured switch fluorescence ratio is listed for GGGTTGTCGA ?
Result: 0.952

Ask: What value of measured switch fluorescence ratio is listed for CACAGGGGAC ?
Result: 1.11

Ask: What value of measured switch fluorescence ratio is listed for CGAAGCTAGG ?
Result: 2.16

Ask: What value of measured switch fluorescence ratio is listed for AGTGCAGGGA ?
Result: 0.989

Ask: What value of measured switch fluorescence ratio is listed for CCTGGGTACC ?
Result: 1.04

Ask: What value of measured switch fluorescence ratio is listed for CATTTGGCGG ?
Result: 1

Ask: What value of measured switch fluorescence ratio is listed for TCAGTACGAC ?
Result: 1.2

Ask: What value of measured switch fluorescence ratio is listed for AATAGTAGCG ?
Result: 1.01

Ask: What value of measured switch fluorescence ratio is listed for TTGAGTAATG ?
Result: 1.01

Ask: What value of measured switch fluorescence ratio is listed for CGTTAAGGCT ?
Result: 0.973

Ask: What value of measured switch fluorescence ratio is listed for AACATATGGG ?
Result: 1

Ask: What value of measured switch fluorescence ratio is listed for AGCCCGCCGG ?
Result: 1.03

Ask: What value of measured switch fluorescence ratio is listed for CTGTGTGAAG ?
Result: 1

Ask: What value of measured switch fluorescence ratio is listed for TTGTCGGATT ?
Result: 0.991

Ask: What value of measured switch fluorescence ratio is listed for CGTGTACCGG ?
Result: 1.01

Ask: What value of measured switch fluorescence ratio is listed for TGGGTCGGCT ?
Result: 1.06

Ask: What value of measured switch fluorescence ratio is listed for GAATAGGTAA ?
Result: 1.02

Ask: What value of measured switch fluorescence ratio is listed for CACCGGGAAC ?
Result: 1.56

Ask: What value of measured switch fluorescence ratio is listed for GTTGTTTTAA ?
Result: 1.05

Ask: What value of measured switch fluorescence ratio is listed for TTTCATATTT ?
Result: 1.03

Ask: What value of measured switch fluorescence ratio is listed for GCGCACCTTT ?
Result: 1.01

Ask: What value of measured switch fluorescence ratio is listed for TCGGTAGTGG ?
Result: 1

Ask: What value of measured switch fluorescence ratio is listed for CTTGTAGGTG ?
Result: 1.36

Ask: What value of measured switch fluorescence ratio is listed for GTTAATGTCC ?
Result: 0.994

Ask: What value of measured switch fluorescence ratio is listed for TCGTTTTCCT ?
Result: 1.02

Ask: What value of measured switch fluorescence ratio is listed for CGGGTTGGAA ?
Result: 0.973

Ask: What value of measured switch fluorescence ratio is listed for TAACGGGTCG ?
Result: 0.937

Ask: What value of measured switch fluorescence ratio is listed for TACCCTGAAA ?
Result: 1.02

Ask: What value of measured switch fluorescence ratio is listed for TTGGAGTACT ?
Result: 1.09

Ask: What value of measured switch fluorescence ratio is listed for GACTTGTGGG ?
Result: 1.02

Ask: What value of measured switch fluorescence ratio is listed for TTGTTCGGTA ?
Result: 1.02

Ask: What value of measured switch fluorescence ratio is listed for CGTGTAATTC ?
Result: 1.03

Ask: What value of measured switch fluorescence ratio is listed for AGATAGAAGG ?
Result: 0.995

Ask: What value of measured switch fluorescence ratio is listed for ATTGACGATC ?
Result: 0.994

Ask: What value of measured switch fluorescence ratio is listed for GGGGGTGGTG ?
Result: 0.988

Ask: What value of measured switch fluorescence ratio is listed for AATTTGCGGT ?
Result: 0.988

Ask: What value of measured switch fluorescence ratio is listed for ACGCCGTCGA ?
Result: 1.03

Ask: What value of measured switch fluorescence ratio is listed for GATAGGTG ?
Result: 1.21

Ask: What value of measured switch fluorescence ratio is listed for CAATGCAGTG ?
Result: 1

Ask: What value of measured switch fluorescence ratio is listed for ACATACTTTA ?
Result: 1.32

Ask: What value of measured switch fluorescence ratio is listed for GGTATAGGGA ?
Result: 1.01

Ask: What value of measured switch fluorescence ratio is listed for TAACGCTTAA ?
Result: 1.09

Ask: What value of measured switch fluorescence ratio is listed for CTGGAATCCG ?
Result: 1.08

Ask: What value of measured switch fluorescence ratio is listed for GTTAGTGGCA ?
Result: 0.984

Data origin, for the record: the supplement of paper PMC10126150
